Values of pIC50 reported for varicella zoster virus DNA polymerase (Varicella-zoster virus, UniProt P09252) appear below.
pIC50: −log10 of the molar value.
measured quantity: pIC50

Would you please look over these solved cases?
{"molecule": "CC(=O)N1CCC(Oc2cc(C(=O)NCc3ccc(Cl)cc3)ncc2-c2cnn(C)c2)CC1 [Compound 6]", "val": 7.51}
{"molecule": "O=C(NCc1ccc(Cl)cc1)c1cc(O[C@H]2CCN3C(=O)OC[C@@H]3C2)c(-c2cnc(CO)s2)cn1 [Compound 22]", "val": 8.95}
{"molecule": "O=C(NCc1ccc(Cl)cc1)c1cc(O[C@H]2CCN3C(=O)OC[C@@H]3C2)c(CC2CCCO2)cn1 (mixture of isomers) [Compound 113]", "val": 7.73}

1. N#Cc1cnc(C(=O)NCc2ccc(Cl)cc2)cc1O[C@H]1CCN2C(=O)CC[C@@H]2C1 (racemic) [Compound 158]
2. CC(C)(O)C1CCN(c2cnc(C(=O)NCc3ccc(Cl)cc3)cc2O[C@H]2CCN3C(=O)OC[C@@H]3C2)C1 (single isomer, unassigned) [Compound 117-1]
Hi, I'm comparing two records. Which one has the lower pIC50, 1 or 2 ? Provide the label of your selected option as the answer. 1

###

Values of IC50 reported for UniProt:P08546 appear below.
Sequence (P08546 whole entry): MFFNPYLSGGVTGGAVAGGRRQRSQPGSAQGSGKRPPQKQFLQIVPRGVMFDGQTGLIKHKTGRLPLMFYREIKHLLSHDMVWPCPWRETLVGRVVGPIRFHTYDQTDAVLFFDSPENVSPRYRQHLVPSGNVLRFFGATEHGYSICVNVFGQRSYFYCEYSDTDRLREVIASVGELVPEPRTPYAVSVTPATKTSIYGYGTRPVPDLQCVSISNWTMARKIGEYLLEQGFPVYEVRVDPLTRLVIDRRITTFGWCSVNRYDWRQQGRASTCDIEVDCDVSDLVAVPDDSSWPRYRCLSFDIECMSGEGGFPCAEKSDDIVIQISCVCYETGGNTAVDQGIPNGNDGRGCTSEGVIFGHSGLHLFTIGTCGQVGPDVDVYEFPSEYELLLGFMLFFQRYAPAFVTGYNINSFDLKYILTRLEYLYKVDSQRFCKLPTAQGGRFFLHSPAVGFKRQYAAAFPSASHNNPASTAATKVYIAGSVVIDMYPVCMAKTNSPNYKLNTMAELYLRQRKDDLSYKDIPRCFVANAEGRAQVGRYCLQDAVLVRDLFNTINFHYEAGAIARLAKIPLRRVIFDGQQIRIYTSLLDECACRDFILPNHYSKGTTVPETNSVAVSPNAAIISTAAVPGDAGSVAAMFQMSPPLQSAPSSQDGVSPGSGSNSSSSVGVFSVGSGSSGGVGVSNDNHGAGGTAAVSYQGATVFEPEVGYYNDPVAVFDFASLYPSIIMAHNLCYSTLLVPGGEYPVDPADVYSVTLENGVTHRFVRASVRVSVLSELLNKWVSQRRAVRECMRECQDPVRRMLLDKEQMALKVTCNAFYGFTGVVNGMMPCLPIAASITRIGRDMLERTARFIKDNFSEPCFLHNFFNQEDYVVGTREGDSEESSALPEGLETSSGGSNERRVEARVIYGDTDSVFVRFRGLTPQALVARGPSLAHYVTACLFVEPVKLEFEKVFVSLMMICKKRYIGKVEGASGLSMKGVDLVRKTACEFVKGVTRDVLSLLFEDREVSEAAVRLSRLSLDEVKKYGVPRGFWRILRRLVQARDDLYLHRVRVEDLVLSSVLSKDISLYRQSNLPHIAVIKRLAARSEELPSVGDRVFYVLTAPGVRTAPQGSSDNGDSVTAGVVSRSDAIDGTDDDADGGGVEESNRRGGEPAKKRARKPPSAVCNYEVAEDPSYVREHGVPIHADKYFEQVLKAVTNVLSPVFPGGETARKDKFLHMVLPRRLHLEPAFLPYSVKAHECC
measured quantity: IC50 (nM)

{"compound": "Cc1cnc(-c2cnc(C(=O)NCc3ccc(Cl)cc3)cc2OC(C)C)s1 [Compound 103]", "readout units": "nM", "IC50": 2310}
{"compound": "CSc1cnc(C(=O)NCc2ccc(Cl)cc2)cc1O[C@H]1CCN2C(=O)OC[C@@H]2C1 [Compound 147a]", "readout units": "nM", "IC50": 19}
{"compound": "CC(=O)N1CCC(Oc2cc(C(=O)NCc3ccc(Cl)cc3)ncc2/C=C/CO)CC1 [Compound 73]", "readout units": "nM", "IC50": 93.2}
{"compound": "O=C(NCc1ccc(Cl)cc1)c1cc(O[C@H]2CCN3C(=O)OC[C@@H]3C2)c(N2CC3(CC(O)C3)C2)cn1 [Compound 118]", "readout units": "nM", "IC50": 38.8}
{"compound": "Cc1ncc(-c2cc(O[C@H]3CCN4C(=O)OC[C@@H]4C3)cc(C(=O)NCc3ccc(Cl)cc3)n2)s1 [Compound 102]", "readout units": "nM", "IC50": 199}
{"compound": "COCCn1cc(-c2cnc(C(=O)NCc3ccc(Cl)cc3)cc2O[C@H]2CCN3C(=O)OC[C@@H]3C2)cn1 [Compound 31]", "readout units": "nM", "IC50": 8.59}
{"compound": "O=C(NCc1ccc(Cl)cc1)c1cc(O[C@H]2CCN3C(=O)OC[C@@H]3C2)c(-c2cnn(CC(F)F)c2)cn1 [Compound 27]", "readout units": "nM", "IC50": 14.1}
{"compound": "CC(=O)N1CCC(Oc2cc(C(=O)NCc3ccc(Cl)cc3)ncc2C#Cc2ccc(C)cn2)CC1 [Compound 71]", "readout units": "nM", "IC50": 172}

1. CC(=O)N1CCC(Oc2cc(C(=O)NCc3ccc(Cl)cc3)ncc2-c2nnc(C)s2)CC1 [Compound 54]
2. Cn1cc(-c2cnc(C(=O)NCc3ccc(Cl)cc3F)cc2O[C@H]2CCN3C(=O)OC[C@@H]3C2)cn1 [Compound 97]
3. Cn1cc(-c2cnc(C(=O)NCc3ccc(Cl)cc3)cc2O[C@H]2CCN3C(=O)CC[C@H]3C2)cn1 (racemic) [Compound 170]
4. CC(=O)N1CCC(Oc2cc(C(=O)NCc3ccc(Cl)cc3)ncc2-c2nc(C)ns2)CC1 [Compound 49]
Rank by IC50 (largest to smallest). Submit the labels in the order that the ranking request calls for. 3, 1, 4, 2
(3: 178 nM, 1: 61.6 nM, 4: 36.3 nM, 2: 14 nM)

a. COC/C=C/c1cnc(C(=O)NCc2ccc(Cl)cc2)cc1OC1CCN(C(C)=O)CC1 [Compound 74]
b. O=C(NCc1ccc(Cl)cc1)c1cc(O[C@H]2CCN3C(=O)OC[C@@H]3C2)c(CC2CCCO2)cn1 (mixture of isomers) [Compound 113]
c. CC(=O)N1CCC(Oc2cc(C(=O)NCc3ccc(Cl)cc3)ncc2-c2cnc(C)s2)CC1 [Compound 43]
Rank by IC50 (largest to smallest). Submit the labels in the order that the ranking request calls for. a, b, c
(a: 83 nM, b: 56.6 nM, c: 24.9 nM)

###

Test system: VZV in MeWo or MRC5 cells
Assay: Viral qPCR assay VZV (V0/V1, V2/V3), EC50
Assay type: cell-based
Details: Human alphaherpesvirus 3, MeWo, MEWO cells, 10%; read-out: VZV Cell (EC50) MEWO 10%
Form field: EC50 (one value per entry).
Hi! Could you send only the number? It should be in nM, unit omitted.

Would you please look over these solved cases?
{"compound": "O=C(NCc1ccc(Cl)cc1)c1cc(O[C@H]2CCN3C(=O)OC[C@@H]3C2)c(-c2cnn(C(F)F)c2)cn1", "EC50 [nM]": 112}
{"compound": "O=C(NCc1ccc(Cl)cc1)c1cc(O[C@H]2CCN3C(=O)OC[C@@H]3C2)c(CN2CCOCC2)cn1", "EC50 [nM]": 642}
{"compound": "Cn1cc(-c2cnc(C(=O)NCc3ccc(Cl)cc3)cc2OC2CCN3C(=O)OCC3(C)C2)cn1 (stereo not shown)", "EC50 [nM]": 277}

Query CC(C)n1cc(-c2cnc(C(=O)NCc3ccc(Cl)cc3)cc2O[C@H]2CCN3C(=O)OC[C@@H]3C2)cn1 yields EC50 of 205

Query CC(=O)N1CCC(Oc2cc(C(=O)NCc3ccc(Cl)cc3)ncc2-c2ccn(C)n2)CC1 yields EC50 of 81.6

Query Cc1c[n+]([O-])c(C(=O)NCc2ccc(Cl)cc2)cc1O[C@H]1CCN2C(=O)OC[C@@H]2C1 yields EC50 of 252

Query Cc1cnn(-c2cnc(C(=O)NCc3ccc(Cl)cc3)cc2O[C@H]2CCN3C(=O)OC[C@@H]3C2)c1 yields EC50 of 870

###

Tested on: HSV-1 Strain F in Vero or MRC5 cells
Test: Viral qPCR assay HSV-1 (V0/V1, V2/V3), EC50
Assay type: cell-based
Conditions: Human alphaherpesvirus 1, Vero, VERO cells, 10%; read-out: HSV1 Cell (EC50) VERO 10%
Form field: pEC50 (one value per entry).
Note: pEC50 values are expressed as the negative base-10 logarithm of concentration in M.

Would you please look over these solved cases?
{"molecule": "N#Cc1ccc(CNC(=O)c2cc(O[C@H]3CCN4C(=O)OC[C@@H]4C3)c(-c3cnn(C(F)F)c3)cn2)c(F)c1 [Compound 84]", "system tested": "HSV-1 Strain F in Vero or MRC5 cells", "val": 6.28}
{"molecule": "O=C(NCc1ccc(Cl)cc1)c1cc(O[C@H]2CCN3C(=O)OC[C@@H]3C2)c(-c2cc[nH]n2)cn1 [Compound 18]", "system tested": "HSV-1 Strain F in Vero or MRC5 cells", "val": 6.08}
{"molecule": "Cc1cnc(-c2cnc(C(=O)NCc3ccc(Cl)cc3)cc2OC(C)C)s1 [Compound 103]", "system tested": "HSV-1 Strain F in Vero or MRC5 cells", "val": 5.52}
{"molecule": "O=C(NCc1ccc(Cl)cc1)c1cc(O[C@H]2CCN3C(=O)OC[C@@H]3C2)c(CN2CCSCC2)cn1 [Compound 139]", "system tested": "HSV-1 Strain F in Vero or MRC5 cells", "val": 6.26}
{"molecule": "CN(CCCO)Cc1cnc(C(=O)NCc2ccc(Cl)cc2)cc1O[C@H]1CCN2C(=O)OC[C@@H]2C1 [Compound 136]", "system tested": "HSV-1 Strain F in Vero or MRC5 cells", "val": 5.03}

Query Cn1cc(-c2cnc(C(=O)NCc3ccc(Cl)cc3)cc2OC2CCN3C(=O)OCC3(C)C2)cn1 (stereo not drawn) [Compound 159] yields pEC50 of 6.48

Query CC(C)n1cc(-c2cnc(C(=O)NCc3ccc(Cl)cc3)cc2O[C@H]2CCN3C(=O)OC[C@@H]3C2)cn1 [Compound 21] yields pEC50 of 6.69

Query Cn1cc(-c2cnc(C(=O)NCc3ccc(Cl)cc3)cc2O[C@H]2CCN3C(=O)NC[C@H]3C2)cn1 (racemic) [Compound 171] yields pEC50 of 5.71

Query Cc1ncc(-c2cnc(C(=O)NCc3ccc(Cl)cc3)cc2O[C@H]2CCN3C(=O)OC[C@@H]3C2)s1 [Compound 42] yields pEC50 of 7.39

Query Cc1cnc(-c2cnc(C(=O)NCc3ccc(Cl)cc3)cc2O[C@H]2CCN3C(=O)OC[C@@H]3C2)s1 [Compound 41] yields pEC50 of 7.91

Query O=C(NCc1ccc(Cl)cc1)c1cc(O[C@H]2CCN3C(=O)NC[C@@H]3C2)c(-c2cnn(C(F)F)c2)cn1 (racemic) [Compound 163] yields pEC50 of 6.12

Query O=C(NCc1ccc(Cl)cc1)c1cc(O[C@H]2CCN3C(=O)OC[C@@H]3C2)c(CO)cn1 [Compound 98] yields pEC50 of 5.82

Query COC/C=C/c1cnc(C(=O)NCc2ccc(Cl)cc2)cc1O[C@H]1CCN2C(=O)OC[C@@H]2C1 [Compound 155b] yields pEC50 of 6.68

Query O=C(NCc1ccc(Cl)cc1)c1cc(O[C@H]2CCN3C(=O)OC[C@@H]3C2)c(-c2cnn(CCO)c2)cn1 [Compound 34] yields pEC50 of 5.91

Query COC/C=C/c1cnc(C(=O)NCc2ccc(Cl)cc2)cc1OC1CCN(C(C)=O)CC1 [Compound 74] yields pEC50 of 6.55
